So I've got a bunch of molecules here, and I need their NanoBRET Fold Response values.
# TARGET SYSTEM: CXCR4 (Homo sapiens, UniProt P61073)
# Construct: purchased Promega (in-house HiBiT-GPCR construct library, NanoBRET)
# Sequence (P61073 whole entry): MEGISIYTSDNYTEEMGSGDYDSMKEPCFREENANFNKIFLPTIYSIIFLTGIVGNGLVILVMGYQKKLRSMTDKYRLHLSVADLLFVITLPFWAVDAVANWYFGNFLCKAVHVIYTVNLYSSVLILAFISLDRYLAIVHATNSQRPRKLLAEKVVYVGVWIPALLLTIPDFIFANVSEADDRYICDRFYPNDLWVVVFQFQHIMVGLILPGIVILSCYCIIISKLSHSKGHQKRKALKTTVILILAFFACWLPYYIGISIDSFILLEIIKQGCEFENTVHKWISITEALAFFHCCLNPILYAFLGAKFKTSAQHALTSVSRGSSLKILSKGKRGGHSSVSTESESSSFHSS
# TEST DETAILS: NanoBRET screen HiBiT-CXCR4 in HEK293
# Format: binding
# CONDITIONS: CXCR4; tracer 0.1μM
Form rule: numeric answer, no unit written next to it.

Requested read-out: NanoBRET Fold Response. Entry: Cc1cc2c(s1)Nc1ccccc1N=C2N1CCN(CCCNC(=O)CCOCCOCCOCCOCCNC(=O)CCc2ccc3n2[B-](F)(F)[N+]2=C(c4ccc[nH]4)C=CC2=C3)CC1
1.04

Requested read-out: NanoBRET Fold Response. Entry: N#CN=C(NCCCOc1cccc(CN2CCCCC2)c1)NCCNC(=O)CCOCCOCCOCCOCCNC(=O)CCc1ccc2n1[B-](F)(F)[N+]1=C(c3ccc[nH]3)C=CC1=C2
1.08

Requested read-out: NanoBRET Fold Response. Entry: COc1ccccc1N1CCN(CCCCN2C(=O)c3ccc(CNC(=O)CCOCCOCCOCCOCCNC(=O)CCc4ccc5n4[B-](F)(F)[N+]4=C(c6ccc[nH]6)C=CC4=C5)cc3C2=O)CC1
1.00

* * *

# TARGET SYSTEM: NMUR1 (Homo sapiens, UniProt Q9HB89)
# Construct: purchased Promega (in-house HiBiT-GPCR construct library, NanoBRET)
# Sequence (Q9HB89 whole entry): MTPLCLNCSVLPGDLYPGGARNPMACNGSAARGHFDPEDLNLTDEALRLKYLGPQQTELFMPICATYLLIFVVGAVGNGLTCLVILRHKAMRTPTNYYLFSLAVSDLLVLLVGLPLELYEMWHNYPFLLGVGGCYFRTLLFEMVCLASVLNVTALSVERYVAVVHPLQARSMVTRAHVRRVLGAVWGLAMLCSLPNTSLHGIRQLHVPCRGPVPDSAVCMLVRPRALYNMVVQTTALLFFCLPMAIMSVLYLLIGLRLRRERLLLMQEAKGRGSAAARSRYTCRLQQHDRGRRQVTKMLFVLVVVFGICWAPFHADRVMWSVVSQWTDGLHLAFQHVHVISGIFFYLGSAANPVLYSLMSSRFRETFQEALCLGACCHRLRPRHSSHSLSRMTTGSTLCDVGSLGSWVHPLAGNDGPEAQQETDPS
# TEST DETAILS: NanoBRET screen HiBiT-NMUR1 in HEK293
# Type: binding
# CONDITIONS: NMUR1; tracer 0.1μM
Assign T whenever NanoBRET Fold Response does not fall below 1; assign F whenever it does.

Is reported NanoBRET Fold Response greater than or equal to 1 here: CC(C)N(CC[C@H](c1ccccc1)c1cc(CCNC(=O)CCOCCOCCOCCOCCNC(=O)CCc2ccc3n2[B-](F)(F)[N+]2=C(c4ccc[nH]4)C=CC2=C3)ccc1O)C(C)C [Tolterodine-2-NB590]
F

Is reported NanoBRET Fold Response greater than or equal to 1 here: COc1ccccc1N1CCN(CCCCN2C(=O)c3ccc(CNC(=O)CCOCCNC(=O)c4ccc(CNC(=O)CCc5ccc6n5[B-](F)(F)[N+]5=C(c7ccc[nH]7)C=CC5=C6)cc4)cc3C2=O)CC1 [NAN-190-3-NB590]
T

Is reported NanoBRET Fold Response greater than or equal to 1 here: Cc1nc2n(c(=O)c1CCN1CCC(c3noc4cc(F)ccc34)CC1)CCCC2OC(=O)NCCOCCOCCOCCOCCNC(=O)CCc1ccc2n1[B-](F)(F)[N+]1=C(c3ccc[nH]3)C=CC1=C2 (centres unmarked) [Risperidone-2-NB590]
T

* * *

# TARGET SYSTEM: PTAFR (Homo sapiens, UniProt P25105)
# Construct: purchased Promega (in-house HiBiT-GPCR construct library, NanoBRET)
# Sequence (P25105 whole entry): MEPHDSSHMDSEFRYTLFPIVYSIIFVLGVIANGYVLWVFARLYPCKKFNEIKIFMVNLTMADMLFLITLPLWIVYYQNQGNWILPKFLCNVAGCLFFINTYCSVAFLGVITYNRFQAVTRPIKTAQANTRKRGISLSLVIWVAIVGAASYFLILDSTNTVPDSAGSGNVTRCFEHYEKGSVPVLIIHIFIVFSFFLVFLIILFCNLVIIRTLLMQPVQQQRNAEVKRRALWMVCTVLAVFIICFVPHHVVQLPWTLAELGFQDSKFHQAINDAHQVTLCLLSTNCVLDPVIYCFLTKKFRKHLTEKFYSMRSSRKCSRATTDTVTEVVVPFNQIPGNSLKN
# TEST DETAILS: NanoBRET screen HiBiT-PTAFR in HEK293
# Assay type: binding
# CONDITIONS: PTAFR; tracer 0.1μM
ASSAY ENDPOINT: NanoBRET Fold Response
Form rule: numeric answer, no unit written next to it.

Lookup: NanoBRET Fold Response / PTAFR (Homo sapiens, UniProt P25105) / O=C(CCOCCOCCOCCOCCNC(=O)CCc1ccc2n1[B-](F)(F)[N+]1=C(c3ccc[nH]3)C=CC1=C2)NCCCN1CCN(C2=Nc3ccccc3Oc3ccc(Cl)cc32)CC1
1.10

Lookup: NanoBRET Fold Response / PTAFR (Homo sapiens, UniProt P25105) / CC(C)N(CC[C@H](c1ccccc1)c1cc(CCNC(=O)c2ccc(CNC(=O)CCc3ccc4n3[B-](F)(F)[N+]3=C(c5ccc[nH]5)C=CC3=C4)cc2)ccc1O)C(C)C
0.93

Lookup: NanoBRET Fold Response / PTAFR (Homo sapiens, UniProt P25105) / O=C(CCc1ccc2n1[B-](F)(F)[N+]1=C(c3ccc[nH]3)C=CC1=C2)NCCOCCOCCNC(=O)OCCOCCN1CCN(C2=Nc3ccccc3Sc3ccccc32)CC1
1.05

Lookup: NanoBRET Fold Response / PTAFR (Homo sapiens, UniProt P25105) / Cc1cc2c(s1)Nc1ccccc1N=C2N1CCN(CCCNC(=O)CCOCCOCCOCCOCCNC(=O)CCc2ccc3n2[B-](F)(F)[N+]2=C(c4ccc[nH]4)C=CC2=C3)CC1
1.00

Lookup: NanoBRET Fold Response / PTAFR (Homo sapiens, UniProt P25105) / CC(C)N(CC[C@H](c1ccccc1)c1cc(CCNC(=O)CCOCCOCCOCCOCCNC(=O)CCc2ccc3n2[B-](F)(F)[N+]2=C(c4ccc[nH]4)C=CC2=C3)ccc1O)C(C)C
1.17

Lookup: NanoBRET Fold Response / PTAFR (Homo sapiens, UniProt P25105) / COc1ccccc1N1CCN(CCCCN2C(=O)c3ccc(CNC(=O)CCOCCOCCOCCOCCNC(=O)CCc4ccc5n4[B-](F)(F)[N+]4=C(c6ccc[nH]6)C=CC4=C5)cc3C2=O)CC1
1.03

* * *

So I've got a bunch of molecules here, and I need their NanoBRET Fold Response values.
# TARGET SYSTEM: FSHR (Homo sapiens)
# Construct: purchased Promega (in-house HiBiT-GPCR construct library, NanoBRET)
# Sequence (P23945 18-695): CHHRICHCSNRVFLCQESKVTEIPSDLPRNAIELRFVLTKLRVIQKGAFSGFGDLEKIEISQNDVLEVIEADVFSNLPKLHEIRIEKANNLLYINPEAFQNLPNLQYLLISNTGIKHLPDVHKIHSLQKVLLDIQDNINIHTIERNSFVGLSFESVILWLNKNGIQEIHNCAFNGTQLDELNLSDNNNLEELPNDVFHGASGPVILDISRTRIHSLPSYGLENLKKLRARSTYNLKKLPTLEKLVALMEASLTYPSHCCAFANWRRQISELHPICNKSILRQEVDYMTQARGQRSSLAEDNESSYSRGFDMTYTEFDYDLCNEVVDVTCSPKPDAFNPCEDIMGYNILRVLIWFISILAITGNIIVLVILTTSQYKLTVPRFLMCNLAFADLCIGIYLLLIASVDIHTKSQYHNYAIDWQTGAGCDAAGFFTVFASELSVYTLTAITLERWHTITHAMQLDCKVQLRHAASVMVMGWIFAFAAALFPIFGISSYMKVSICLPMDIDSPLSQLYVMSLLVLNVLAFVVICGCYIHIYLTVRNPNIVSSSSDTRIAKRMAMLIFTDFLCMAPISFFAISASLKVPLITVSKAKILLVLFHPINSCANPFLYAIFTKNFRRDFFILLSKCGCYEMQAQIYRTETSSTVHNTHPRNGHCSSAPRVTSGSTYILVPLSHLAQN
# TEST DETAILS: NanoBRET screen HiBiT-FSHR in HEK293
# Assay type: binding
# CONDITIONS: FSHR; tracer 0.1μM
Form rule: numeric answer, no unit written next to it.

Requested read-out: NanoBRET Fold Response. Entry: CC(C)N(CC[C@H](c1ccccc1)c1cc(CCNC(=O)c2ccc(CNC(=O)CCc3ccc4n3[B-](F)(F)[N+]3=C(c5ccc[nH]5)C=CC3=C4)cc2)ccc1O)C(C)C
1.08

Requested read-out: NanoBRET Fold Response. Entry: N#CN=C(NCCCOc1cccc(CN2CCCCC2)c1)NCCNC(=O)CCOCCOCCOCCOCCNC(=O)CCc1ccc2n1[B-](F)(F)[N+]1=C(c3ccc[nH]3)C=CC1=C2
0.99

Requested read-out: NanoBRET Fold Response. Entry: COc1ccccc1N1CCN(CCCCN2C(=O)c3ccc(CNC(=O)CCOCCNC(=O)c4ccc(CNC(=O)CCc5ccc6n5[B-](F)(F)[N+]5=C(c7ccc[nH]7)C=CC5=C6)cc4)cc3C2=O)CC1
0.88

* * *

So I've got a bunch of compounds here, and I need their NanoBRET Fold Response values.
# TARGET SYSTEM: C5AR2 (Homo sapiens)
# Construct: purchased Promega (in-house HiBiT-GPCR construct library, NanoBRET)
# Sequence (Q9P296 whole entry): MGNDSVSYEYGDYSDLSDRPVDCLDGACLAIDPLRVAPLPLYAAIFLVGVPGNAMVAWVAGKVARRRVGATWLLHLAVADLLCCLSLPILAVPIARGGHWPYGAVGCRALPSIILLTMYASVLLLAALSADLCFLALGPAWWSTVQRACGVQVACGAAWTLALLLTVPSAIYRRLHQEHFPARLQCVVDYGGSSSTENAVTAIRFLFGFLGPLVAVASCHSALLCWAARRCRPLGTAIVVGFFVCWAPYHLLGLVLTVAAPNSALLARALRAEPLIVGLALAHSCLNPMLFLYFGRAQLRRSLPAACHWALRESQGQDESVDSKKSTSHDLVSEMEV
# TEST DETAILS: NanoBRET screen HiBiT-C5AR2 in HEK293
# Type: binding
# CONDITIONS: C5AR2; tracer 1μM

Requested read-out: NanoBRET Fold Response. Entry: CC(C)N(CC[C@H](c1ccccc1)c1cc(CCNC(=O)CCOCCOCCOCCOCCNC(=O)CCc2ccc3n2[B-](F)(F)[N+]2=C(c4ccc[nH]4)C=CC2=C3)ccc1O)C(C)C
0.92

Requested read-out: NanoBRET Fold Response. Entry: CC(C)N(CC[C@H](c1ccccc1)c1cc(CCNC(=O)c2ccc(CNC(=O)CCc3ccc4n3[B-](F)(F)[N+]3=C(c5ccc[nH]5)C=CC3=C4)cc2)ccc1O)C(C)C
1.08

Requested read-out: NanoBRET Fold Response. Entry: O=C(CCc1ccc2n1[B-](F)(F)[N+]1=C(c3ccc[nH]3)C=CC1=C2)NCc1ccc(C(=O)NCCOCCC(=O)N[C@@H]2CC[C@@]3(O)[C@H]4Cc5ccc(O)c6c5[C@@]3(CCN4CC3CC3)[C@H]2O6)cc1 [Naltrexone-3-NB590]
1.01

Requested read-out: NanoBRET Fold Response. Entry: CCCn1c(=O)c2[nH]c(-c3ccc(OCC(=O)NCCNC(=O)CCOCCNC(=O)c4ccc(CNC(=O)CCc5ccc6n5[B-](F)(F)[N+]5=C(c7ccc[nH]7)C=CC5=C6)cc4)cc3)nc2n(CCC)c1=O
1.01

Requested read-out: NanoBRET Fold Response. Entry: Cc1cc2c(s1)Nc1ccccc1N=C2N1CCN(CCCNC(=O)CCOCCOCCOCCOCCNC(=O)CCc2ccc3n2[B-](F)(F)[N+]2=C(c4ccc[nH]4)C=CC2=C3)CC1
0.97

* * *

# TARGET SYSTEM: HTR2A (Homo sapiens)
# Construct: purchased Promega (in-house HiBiT-GPCR construct library, NanoBRET)
# Sequence (P28223 whole entry): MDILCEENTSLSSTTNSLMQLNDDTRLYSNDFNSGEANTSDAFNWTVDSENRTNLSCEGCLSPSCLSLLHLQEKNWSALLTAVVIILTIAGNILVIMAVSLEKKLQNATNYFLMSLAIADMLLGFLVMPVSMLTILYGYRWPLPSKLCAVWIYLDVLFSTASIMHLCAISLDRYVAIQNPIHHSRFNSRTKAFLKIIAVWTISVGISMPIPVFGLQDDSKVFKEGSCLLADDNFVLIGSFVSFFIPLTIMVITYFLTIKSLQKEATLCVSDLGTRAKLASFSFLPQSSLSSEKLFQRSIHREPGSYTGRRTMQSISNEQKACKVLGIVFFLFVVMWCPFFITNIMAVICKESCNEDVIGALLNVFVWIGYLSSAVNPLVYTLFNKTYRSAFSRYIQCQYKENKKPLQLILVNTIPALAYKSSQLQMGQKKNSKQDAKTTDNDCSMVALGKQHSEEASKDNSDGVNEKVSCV
# TEST DETAILS: NanoBRET screen HiBiT-HTR2A in HEK293
# Assay type: binding
# CONDITIONS: HTR2A; tracer 1μM
ASSAY ENDPOINT: NanoBRET Fold Response
Form rule: numeric answer, no unit written next to it.

Requested read-out: NanoBRET Fold Response. Entry: CC(C)N(CC[C@H](c1ccccc1)c1cc(CCNC(=O)c2ccc(CNC(=O)CCc3ccc4n3[B-](F)(F)[N+]3=C(c5ccc[nH]5)C=CC3=C4)cc2)ccc1O)C(C)C
1.04

Requested read-out: NanoBRET Fold Response. Entry: CCCn1c(=O)c2[nH]c(-c3ccc(OCC(=O)NCCNC(=O)CCOCCNC(=O)c4ccc(CNC(=O)CCc5ccc6n5[B-](F)(F)[N+]5=C(c7ccc[nH]7)C=CC5=C6)cc4)cc3)nc2n(CCC)c1=O
1.10

Requested read-out: NanoBRET Fold Response. Entry: CC(C)N(CC[C@H](c1ccccc1)c1cc(CCNC(=O)CCOCCOCCOCCOCCNC(=O)CCc2ccc3n2[B-](F)(F)[N+]2=C(c4ccc[nH]4)C=CC2=C3)ccc1O)C(C)C
1.11

Requested read-out: NanoBRET Fold Response. Entry: N#CN=C(NCCCOc1cccc(CN2CCCCC2)c1)NCCNC(=O)CCOCCOCCOCCOCCNC(=O)CCc1ccc2n1[B-](F)(F)[N+]1=C(c3ccc[nH]3)C=CC1=C2
1.02
